Hello, the source for this data is patent US12577248B2, in case you need it.

assay target: Ba/F3-TEL-SYK cells (Homo sapiens, UniProt P43405)
Construct: fused on or other part: N-terminal part of TEL (ETV6) with its oligomerising PNT/SAM domain, fused before the SYK part that carries the kinase domain; P41212 (Transcription factor ETV6)
protocol description: Ba/F3-TEL-SYK cell-based assay (CellTiter-Glo proliferation)
condition set: 72 hr, read-out: BaF3 Cell assay IC50
Description: CellTiter-Glo® Luminescent Cell Viability Assay was used to determine the number of viable cells in culture based on quantitation of the ATP present, as an indicator of metabolically active cells. […] Finally, luminescence values were obtained using an Envision 2104 plate reader (PerkinElmer) and calculated the average data and Standard Deviation (SD) of DMSO and Reference (GS-9973, 1 μM) as high control and low control. […]
Measured GI50, listed per entry.

Completed entries (count: 3):
{"columns": ["molecule", "observed measurement"],
 "data": [
  ["c1nc2c(Nc3ccc(N4CCOCC4)cc3)nc(-c3ccc4cc[nH]c4c3)cn2n1", "0.05 to 0.5 µM"],
  ["COc1cc(Nc2nc(-c3ccc4cc[nH]c4c3)cn3ncnc23)ccc1N1CCOCC1", "≤ 0.05 µM"],
  ["CC(C)Oc1cc(Nc2nc(-c3ccc4cc[nH]c4c3)cn3ncnc23)ccc1N1CC2CC1CN2C1COC1 (stereo not drawn)", "0.5 to 5 µM"]
]}

Which GI50 is reported for this molecule? c1nc2c(Nc3ccc(N4CC5(COC5)C4)cc3)nc(-c3ccc4cn[nH]c4c3)cn2n1
0.05 to 0.5 µM

Entry under review: CC1(O)CCN(c2ccc(Nc3nc(-c4ccc5cn[nH]c5c4)cn4ncnc34)cc2)CC1 . Reported GI50?
0.05 to 0.5 µM

Consider the molecule COc1cc(Nc2nc(-c3ccc4cc[nH]c4c3)cn3ncnc23)ccc1N1CCN(C2COC2)CC1 and give its measured GI50.
≤ 0.05 µM

Return reported GI50; argument: c1nc2c(Nc3ccc(N4CCN(C5COC5)CC4)cc3)nc(-c3ccc4cc[nH]c4c3)cn2n1
≤ 0.05 µM

Which GI50 reading was recorded for the molecule c1nc2c(Nc3ccc(N4CC5(COC5)C4)cc3)nc(-c3ccc4cc[nH]c4c3)cn2n1 ?
0.05 to 0.5 µM

Query (molecule): FC(F)Oc1cc(Nc2nc(-c3ccc4cc[nH]c4c3)cn3ncnc23)ccc1N1CC2CC1CN2C1COC1 (stereo not drawn) ; field requested: GI50
0.5 to 5 µM

Suppose we examine the molecule COc1cc(Nc2nc(-c3ccc4c(c3)OCC(=O)N4)cn3ncnc23)ccc1N1CCOCC1 ; what GI50 value has been reported?
0.05 to 0.5 µM

# query: GI50 of entry COc1cc(Nc2nc(-c3ccc4cn[nH]c4c3)cn3ncnc23)ccc1N1CCN(C(C)C)CC1
0.05 to 0.5 µM

Param item = c1nc2c(Nc3ccc(N4CCN(C5COC5)CC4)cc3)nc(-c3ccc4cn[nH]c4c3)cn2n1 ; retrieve measured GI50.
≤ 0.05 µM

So what does the record say about GI50 for COc1cc(Nc2nc(-c3cncc(N)n3)cn3ncnc23)ccc1N1CCN(C2COC2)CC1 ?
0.5 to 5 µM

Given the entry Nc1cncc(-c2cn3ncnc3c(Nc3ccc(N4CCN(C5COC5)CC4)cc3)n2)n1 , report its measured GI50.
0.5 to 5 µM
